Target: T1, gp140UG37 (subtype A), gp140 envelope glycoprotein from the HIV-1 group M A-clade isolate 92UG037 (HIV-1)
T1 construct: also called UG037 gp140/420 (A); gp140-UG037
Test: SPR
measure: log10(koff) (log10 of the value in s⁻¹)
# log10 transformed; quantity=koff; unit=s⁻¹

Below: 4 binders and their reported log10(koff).
{"columns": ["binder", "log10(koff)"],
 "data": [
  ["L82B4F (VHH, Family member of L81H9; tags not written into the chain) VHH: EVQLVESGGGLVQAGGSLRLSCAASGFTSDDYAIGWFRRAPGKEREGVSYISIEDGSTYSADSVKGRFTISSDYAKNTVYLQMNGLKPEDTAVYYCAAAILGDSVRWLQEYDYDYWGQGTQVTVSS", -7.49],
  ["L91F10 (VHH, Purified by IMAC; tags not written into the chain) VHH: EVQLVESGGGLVQPGGSLTLSCVASGFTLDGYAIGWFRQAPGKEVESVSCITGRHGTIYYADSVMGRFTISRDNAKSTVYLQMNSLKPEDTAVYYCAADGFDTPCVAGTDWQYDYWGQGTQVTVSS", -3.92],
  ["L8Cj3 (VHH, 207 chosen because J3r is said to carry S82aN against L8Cj3; also called L8CjJ3; L9Cj3) VHH: EVQLVESGGGLVQAGGFLRLSCELRGSIFNQYAMAWFRQAPGKEREFVAGMGAVPHYGEFVKGRFTISRDNAKSTVYLQMSSLKPEDTAIYFCARSKSTYISYNSNGYDYWGRGTQVTVSS", -7.26],
  ["L91H9 (VHH, Purified by IMAC; tags not written into the chain) VHH: EVQLVESGGGLVQAGGSLRLSCAVSGATFDDYAIGWFRQAPGKEREGVSYIGCNDGSTYYAGSVKGRFTISCDYAKNTVYLQMNSLKPEDTAVYYCAAAAQWATIRWIHEYDYDTWGQGTQVTVSS", -7.01]
]}

Problem: What log10(koff) value was documented for this binder, L92E7 (VHH, Purified by IMAC; tags not written into the chain) VHH: EVQLVESGGGLVQPGGSLRLSCAASGNIVSIDAAGWFRQAPGKQREPVATILTGGATNYADSVKGRFTISRDNAKNTVYLQMSSLKPEDTAVYYCYAPMIYYGGRYSDYWGQGTQVTVSS ?
Solution: -3.60

Cited source for all entries: patent US20150158934A1
